Value source: patent US20260207563A1

target: heteromeric KV7.2/KV7.3 channels (KCNQ2, KCNQ3) (Homo sapiens, UniProt O43525+O43526); construct: expressed in transfected cells; host or cells: CHO-K1; test: Automated patch-clamp (Sophion Qube 384) potency assay against KV7.2/KV7.3 channels; type: cell-based; settings: CHO-K1/Kv7.2/Kv7.3 cells; maximal shift in the Vhalf from the top of the curve
So basically: Kv7.2/7.3 ΔV1/2 at 30 mV or higher? That is TRUE. Lower than 30 mV? That is FALSE.

Kv7.2/7.3 ΔV1/2 >= 30 mV for O=C(NCCC1(C(F)(F)F)CC1)NCc1ccnc(OCC2CC2(F)F)c1 (stereo not shown) ? FALSE

Same again, this time with O=C(NCc1ccnc(OCC(F)(F)F)c1)N[C@H]1COC[C@@H]1c1ccc(F)cc1 FALSE

Repeat with O=C(NCCC1(C(F)(F)F)CC1)NCc1cc(OCC(F)(F)F)nc(C(F)(F)F)c1 FALSE

Let us now turn to O=C(NCCC1(C(F)(F)F)CC1)NCc1cc(OCc2ccc(F)cc2)nc(N2CCOCC2)c1 FALSE

Follow-up item: O=C(NCc1ccnc(OCC(F)(F)F)c1)N[C@H]1CCCC[C@H]1O TRUE

Further, for O=C(NCc1ccnc(OCC(F)(F)F)c1)N[C@@H]1CCOc2ccc(F)cc21 ? TRUE

Item: O=C(NCc1ccnc(OCC(F)(F)F)c1)NC1CCc2ccc(C(F)(F)F)cc21 (stereo not shown) FALSE
